Value source: patent US20210277061A1

Reported pIC50 values for the following binders.
# EXPERIMENTAL_SYSTEM: T1, AF9 YEATS domain, His-AF9 (1-138) (human, UniProt P42568 1-138)
# T1 construct: Expressed in E. coli; not shown: His tag
# T1 sequence (looked up): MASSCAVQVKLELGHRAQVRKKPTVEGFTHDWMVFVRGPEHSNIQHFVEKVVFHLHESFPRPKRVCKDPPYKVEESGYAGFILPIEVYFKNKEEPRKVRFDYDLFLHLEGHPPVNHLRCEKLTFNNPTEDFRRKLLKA
# TEST_DESCRIPTION: photo-cross-linking competition vs photoaffinity probe, in-gel fluorescence
*: point of attachment. 2Furoyl = O=C(c1ccco1)*; Cbz = O=C(OCc1ccccc1)*
Hey, just a heads up that pIC50 is the negative log base 10 of the concentration in molar.

For this binder ( Cbz-QAARK(2Furoyl)-NH2 (SMILES C[C@H](NC(=O)[C@H](C)NC(=O)[C@H](CCC(N)=O)NC(=O)OCc1ccccc1)C(=O)N[C@@H](CCCNC(=N)N)C(=O)N[C@@H](CCCCNC(=O)c1ccco1)C(N)=O, Full structure only as drawing) [compound 53 (competitor T6-A)] ), measured pIC50 is 6.15

For this binder ( Cbz-QSARK(2Furoyl)-NH2 (SMILES C[C@H](NC(=O)[C@H](CO)NC(=O)[C@H](CCC(N)=O)NC(=O)OCc1ccccc1)C(=O)N[C@@H](CCCNC(=N)N)C(=O)N[C@@H](CCCCNC(=O)c1ccco1)C(N)=O, Full structure only as drawing) [compound 55 (competitor T6-S)] ), measured pIC50 is 6.11

For this binder ( Cbz-QTARK(2Furoyl)-NH2 (SMILES C[C@H](NC(=O)[C@@H](NC(=O)[C@H](CCC(N)=O)NC(=O)OCc1ccccc1)[C@@H](C)O)C(=O)N[C@@H](CCCNC(=N)N)C(=O)N[C@@H](CCCCNC(=O)c1ccco1)C(N)=O) [peptide control (competitor control)] ), measured pIC50 is 6.72
